Molecular target: HuDHFR (Homo sapiens, UniProt P00374)
Sequence (P00374 1-187): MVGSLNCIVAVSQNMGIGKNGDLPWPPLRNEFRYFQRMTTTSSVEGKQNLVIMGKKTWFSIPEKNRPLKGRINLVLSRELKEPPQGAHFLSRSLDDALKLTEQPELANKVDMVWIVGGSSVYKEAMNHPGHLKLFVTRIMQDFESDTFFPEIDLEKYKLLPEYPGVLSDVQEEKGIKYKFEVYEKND
Parameter: pIC50. Scope: all listed entries.
pIC50 is a log-scale quantity: -log10 of the concentration expressed in molar.

Here's what some known entries look like.
compound	tgt	measured number
CCc1nc(N)nc(N)c1C#C[C@@H](C)c1ccc(OC)c(-c2ccncc2)c1	HuDHFR (Homo sapiens, UniProt P00374)	7.17
CCc1nc(N)nc(N)c1C#CC(C)c1cc(-c2ccncc2)cc(F)c1OC (centres unmarked)	HuDHFR (Homo sapiens, UniProt P00374)	6.63
CCc1nc(N)nc(N)c1C#C[C@H](C)c1cc(-c2cc(C)nc(C)c2)ccc1Cl	HuDHFR (Homo sapiens, UniProt P00374)	6.68
CCc1nc(N)nc(N)c1C#C[C@H](C)c1ccc(OC)c(-c2ccncc2)c1	HuDHFR (Homo sapiens, UniProt P00374)	7.13
CCc1nc(N)nc(N)c1C#C[C@@H](C)c1cc2c(c(-c3ccncc3)c1)OCO2	HuDHFR (Homo sapiens, UniProt P00374)	6.72

Any idea what its pIC50 is? The compound is CCc1nc(N)nc(N)c1C#C[C@@H](C)c1cc(-c2cc(C)nc(C)c2)ccc1Cl
6.68

Quick one: CCc1nc(N)nc(N)c1C#C[C@@H](C)c1cc(-c2cc(C)nc(C)c2)ccc1OC(F)(F)F
6.78

Quick one: CCc1nc(N)nc(N)c1C#C[C@H](C)c1cc2c(c(-c3ccncc3)c1)OCO2
7.07
